# Tested on: COLO 205
# PROTOCOL_DETAILS: NCI tumour cell line growth inhibition, 48 h
Calls of active or inactive are those of the source. Cut-off read from the data, not from the text of the source: active = GI50 up to about 1.1 µM and inactive = higher.
MEASUREMENT_TYPE: GI50

[
  {
    "COMPOUND": "COc1ccc(S(=O)(=O)NNS(C)(=O)=O)cc1OC",
    "MEAS_VALUE": "> 100 µM (inactive)"
  },
  {
    "COMPOUND": "CCOC(=O)c1nc2cc(C(F)(F)F)ccc2nc1Nc1ccc(F)cc1",
    "MEAS_VALUE": "97.3 µM (inactive)"
  },
  {
    "COMPOUND": "COc1cc(/C=C(\\C#N)c2nc3ccccc3o2)ccc1O",
    "MEAS_VALUE": "16.9 µM (inactive)"
  }
]

Next:
INPUT: Could you share which GI50 value was measured for CCOC(=O)C1=NNC(C(=O)c2ccccc2)C1c1ccccc1 (centres undefined) ?
OUTPUT: 2.05 µM (inactive)

----------
# Tested on: BT-549
# PROTOCOL_DETAILS: NCI tumour cell line growth inhibition, 48 h
The source made the active and inactive calls. No stated cut-off is given here; in the data, active = GI50 up to about 1.1 µM and inactive = higher.
MEASUREMENT_TYPE: GI50

# example entries with known answers
[
  {
    "MOLECULE": "CCCCCCCCCCCCCCCCOCC(Cl)CP(=O)(O)OP(=O)(O)OCC1OC(n2cnc3c(N)ncnc32)C(O)C1O (stereo not given)",
    "GI50": "> 100 µM (inactive)"
  },
  {
    "MOLECULE": "Cc1ccc2c(O)cc(-c3ccc(Cl)cc3)nc2n1",
    "GI50": "2.38 µM (inactive)"
  },
  {
    "MOLECULE": "C=C1C[C@H](O)[C@H]2C(C[Se]c3ccccc3)C(=O)O[C@@H]2[C@H]2[C@H](C)C(O)C[C@@H]12 (stereo not given in full)",
    "GI50": "28.8 µM (inactive)"
  },
  {
    "MOLECULE": "CC(=O)O[C@H]1[C@@H](OC2CCCC2(c2ccccc2)c2ccccc2)O[N+]([O-])=C[C@@H]1c1ccccc1 (stereo not given in full)",
    "GI50": "4.24 µM (inactive)"
  }
]

INPUT: Using the record for C=CCOc1ccc(C(=N/NC(=O)c2ccccc2)/N=N/c2ccc(C)cc2)cc1OC , report its GI50.
OUTPUT: 18.3 µM (inactive)

----------
Consider the following molecules; for each one, report its GI50.
# System: SF-295
# PROTOCOL_DETAILS: NCI tumour cell line growth inhibition, 48 h
The source made the active and inactive calls. Cut-off read from the data, not from the text of the source: active = GI50 up to about 1.1 µM and inactive = higher.

For orientation, consider the following solved cases.
[
  {
    "MOLECULE": "Nc1ccc(Nc2nc(F)nc(-c3c4ccccc4c4n3CCS4)n2)cc1",
    "MEAS_VALUE": "15.7 µM (inactive)"
  },
  {
    "MOLECULE": "O=C1CCc2ccc3c(c21)CC1(Cc2ccccc2C1)C3",
    "MEAS_VALUE": "3.72 µM (inactive)"
  },
  {
    "MOLECULE": "O=C1OC2C(O)COC2(O)C1(O)Cc1c[nH]c2ccccc12.O=C1OC2C(O)COC2(OCc2c[nH]c3ccccc23)C1O (stereo not given)",
    "MEAS_VALUE": "> 100 µM (inactive)"
  },
  {
    "MOLECULE": "Cn1c(=O)n(C2(C)C[Se]C2)c2ccccc21",
    "MEAS_VALUE": "> 100 µM (inactive)"
  },
  {
    "MOLECULE": "CC(C)(C)c1ccc(C(C)(C)C)c(N2C(=O)[C@@H]3[C@@H]4C=C[C@@H](C4)[C@]3(C)C2=O)c1",
    "MEAS_VALUE": "27.7 µM (inactive)"
  }
]

Hello, I would appreciate it if you could give GI50 for each entry below.
1. [N-]=[N+]=C1C(=O)C2CC3CC(C2)CC1C3
2. COC(=O)[C@@]12OC[C@]34C([C@@H](O)C1O)[C@@]1(C)CC(=O)C(O)=C(C)C1C[C@H]3OC(=O)[C@H](OC(=O)/C=C(/c1ccccc1)C(F)(F)F)[C@H]42 (stereo not given in full)
3. CCOc1cc2c(=O)oc3c(OC)ccc4ccc(c1OC)c2c43
4. O=C(CCC(=O)Nc1cccc(Cl)c1)CC(=O)c1ccc(F)cc1
5. O=C1C=C(c2ccccc2)NC1(c1ccccc1)c1cc(-c2ccccc2)[nH]c1-c1ccccc1 (stereo not given)
6. Cc1cc2nc(C=C(C(F)(F)F)C(F)(F)F)sc2cc1C

OUTPUT:
1. > 100 µM (inactive)
2. 4.18 µM (inactive)
3. 96.8 µM (inactive)
4. 23.2 µM (inactive)
5. > 100 µM (inactive)
6. 3.15 µM (inactive)
